Reference source: PubChem BioAssay (NCI)

Tested on: NCI-H460 lung
ASSAY_EXPLANATION: NCI-60 one-dose screen, 48 h (100 = growth as untreated, 0 = no growth, -100 = all killed)
CONDITIONS: 10 µM unless noted
Protocol: Growth inhibition of the NCI-H460 human Non-Small Cell Lung tumor cell line is measured as a screen for anti-cancer activity. Cells are grown in 96 well plates and exposed to the test compound for 48 hours. Compounds are tested at a single concentration, which is 10^-5 M for most compounds. The reported endpoint is percent growth (GI% or GIPRCNT), where numbers from 0 - 100% represent growth inhibition, and numbers from -100% - 0 represent cell death. […]
Compounds without any hit were thinned out: in the full panel of roughly 83,000, 20% have a hit. Activity calls are given as the source filed them. How the source made its calls: active means growth percent below 10; inactive means the rest.
MEASUREMENT_TYPE: growth

molecule CO[C@H]1CC[C@@]2(C)C(=CC[C@H]3[C@@H]4C[C@H](O)C[C@@]4(C)CC[C@@H]32)C1 , growth observed: 42.9% (inactive)

molecule COc1cc(Cl)cc(-c2nn(C(=O)NS(=O)(=O)c3ccccc3)cc2-c2ccncc2)c1 , growth observed: 107% (inactive)

molecule CC(C)[N+](C)(C)CC(O)COc1cccc2ccccc12 (stereo not given) , growth observed: 109% (inactive)

molecule CC(C)=CCC[C@](C)(O)[C@H]1CC[C@]2(C)[C@@H]1CC[C@@H]1[C@@]3(C)CC/C(=N/O)C(C)(C)[C@@H]3CC[C@]12C , growth observed: -7.45% [100 µM] (active)

molecule COc1ccc2nc3c(cc2c1)C(=O)CC(c1ccccc1)C3 (stereo not given) , growth observed: 8.79% (active)

molecule O=C(Nc1cccc(F)c1)c1cc(=O)[nH]c2cc(Br)ccc12 , growth observed: 21.9% (inactive)

molecule CCOC(=O)n1cc(C2=C(c3ccc(OC)c(OC)c3)COC2=O)c2ccccc21 , growth observed: 8.64% (active)

molecule Fc1cc2[nH]ncc2c2c3c(c(-c4cn[nH]c4C(F)(F)F)nc12)C1CCC3C1 (stereo not given) , growth observed: 1.8% (active)

molecule CCOC(=O)c1cc(C#N)n2ncc3ccccc3c12 , growth observed: 101% (inactive)

molecule C=C1C(=O)O[C@H]2[C@H]1CC/C(COC(=O)NCc1ccc(Cn3c(=O)sn(-c4ccc(Cl)cc4)c3=O)cc1)=C\CC[C@@]1(C)O[C@@H]21 , growth observed: 101% (inactive)

====

System: SNB-75 CNS
ASSAY_EXPLANATION: NCI-60 one-dose screen, 48 h
CONDITIONS: 10 µM unless noted
About 83,000 compounds went through this panel and 20% of them were active in at least one assay; those are over-represented in the sample as a whole. The source made the active and inactive calls. The calls were made as follows: active = growth percent below 10; inactive = the rest.
Can you answer with just one of these options? active, inactive

Please state the recorded outcome for this compound: CC(=O)n1cc(C=O)c2ccccc21
inactive

Please state the recorded outcome for this compound: COc1cc(-c2cc(-c3ccc(Nc4ncnc5cc(Cl)ccc45)cc3)nc(N3CCCCC3)n2)cc(OC)c1OC
inactive

Please state the recorded outcome for this compound: CCCCC(CCCCCC(CCCC)C1NC(C)Cc2cc(OC)c(OC)cc21)C1NC(C)Cc2cc(OC)c(OC)cc21 (configuration not stated)
active

Please state the recorded outcome for this compound: Cc1ccc(S(=O)(=O)Oc2ccc(Br)cc2Br)cc1
inactive

Please state the recorded outcome for this compound: N#C/C(C(=O)c1ccccc1)=C1/C(=O)Nc2ccc(F)cc21
inactive

Please state the recorded outcome for this compound: O=C(Oc1ccc(Cl)cc1[N+](=O)[O-])Oc1ccc(Cl)cc1[N+](=O)[O-]
inactive

Please state the recorded outcome for this compound: CC(=O)OC[C@]12CC[C@@H]([C@@H](C)C(N)=O)[C@@H]1[C@H]1CC[C@@H]3[C@@]4(C)CC[C@H](OC(C)=O)C(C)(C)[C@@H]4CC[C@@]3(C)[C@]1(C)CC2
active

Please state the recorded outcome for this compound: C=C(C)[C@@H]1CC[C@]2(C(N)=O)CC[C@]3(C)[C@H](CC[C@@H]4[C@@]5(C)C/C(=C/c6cccnc6)C(=O)C(C)(C)[C@@H]5CC[C@]43C)[C@@H]12
inactive

Please state the recorded outcome for this compound: Cc1cc(-c2ccc(N=Nc3c(S(=O)(=O)O)cc4cc(S(=O)(=O)O)cc(N)c4c3O)c(C)c2)ccc1N=Nc1cc(S(=O)(=O)O)c2ccccc2c1O
inactive

Please state the recorded outcome for this compound: CNC(=O)c1cc(Oc2ccc3nc(NC(=O)c4ccc5ncccc5c4)sc3c2)ccn1
inactive

Please state the recorded outcome for this compound: C=C(C)[C@@H]1CC[C@]2(C(=O)NCCNCCNCCN)CC[C@]3(C)[C@H](CC[C@@H]4[C@@]5(C)CC[C@H](O)C(C)(C)[C@@H]5CC[C@]43C)[C@@H]12
active

Please state the recorded outcome for this compound: CCOC(=O)COc1c(C)cc(SSc2cc(C)c(OCC(=O)OCC)c(C)c2)cc1C
inactive

Please state the recorded outcome for this compound: Cc1cc(SC#N)ncn1
inactive

Please state the recorded outcome for this compound: CC(C)(C)OC(=O)N1C=C/C(=C\Cn2cc(-c3ccccc3)nn2)CC1
inactive

Please state the recorded outcome for this compound: CCCCOC(=O)c1c(C)[nH]c(/C=C2\N=C(c3ccc[nH]3)C=C2OC)c1C
active

Please state the recorded outcome for this compound: O=C(NCc1ccc(Cn2c(=O)sn(-c3ccccc3)c2=O)cc1)OCc1ccc2c(Br)cc(Br)c(O)c2n1
active

Please state the recorded outcome for this compound: Cc1cccc([N+](=O)[O-])c1I
inactive

Please state the recorded outcome for this compound: CCOc1ccc(S(=O)(=O)Nc2ccc3c(c2)N(S(=O)(=O)CC)CCC3)cc1
inactive

Please state the recorded outcome for this compound: C=C(C)[C@@H]1CC[C@]2(COCCCN)CC[C@]3(C)[C@H](CC[C@@H]4[C@@](C)(CCCNCCCN)[C@H](C(=C)C)CC[C@]43C)[C@@H]12
active

Please state the recorded outcome for this compound: COc1ccc(-c2cc(-c3ccc(OC)c(OC)c3)nc(SCCCCCC(=O)NO)n2)cc1
inactive

Please state the recorded outcome for this compound: C[C@]12CCc3c(ccc4cc(O)ccc34)[C@@H]1CC[C@H]2O
inactive

Please state the recorded outcome for this compound: Cc1ccc(-c2cc(-c3ccc(C)cc3)nc(N3CCN(CCNc4ccnc5cc(Cl)ccc45)CC3)n2)cc1
active

Please state the recorded outcome for this compound: CCn1cc(-c2[nH]c(=S)ncc2-c2ccc(Cl)cc2)c(-c2ccc(Br)cc2)n1
inactive

Please state the recorded outcome for this compound: COc1ccc(C(C(=O)O)c2ccc(OC)cc2)cc1
inactive

Please state the recorded outcome for this compound: CC(C)C1=NOC(=O)C1=Cc1cn(-c2cccnc2)nc1-c1ccccc1
inactive

Please state the recorded outcome for this compound: Cn1cc(-c2nnc(-c3cn(C)c4ncccc34)o2)c2ccccc21
active

Please state the recorded outcome for this compound: COc1ccc2nc3cc(Cl)ccc3c(Nc3ccc(O)cc3)c2c1
inactive

Please state the recorded outcome for this compound: CCN(CC)CCCC(C)Nc1c2ccc(C)cc2nc2ccc(OC)cc12 (configuration not stated)
inactive

Please state the recorded outcome for this compound: CC1=CC[C@@H]2C(C)(C)C(=O)CC[C@@]2(C)[C@@H]1COc1ccc2ccc(=O)oc2c1
inactive

Please state the recorded outcome for this compound: CCOc1ccc(/C=C(\C#N)c2cc3ccccc3[nH]2)cc1
inactive

Please state the recorded outcome for this compound: CCOC(=O)Nc1ccc2c(c1)/C(=N\NC(=S)NC)c1ccccc1-2
inactive

Please state the recorded outcome for this compound: C1=C[C@H]2O[C@@H]1c1ccc3[nH]ccc3c12
inactive

Please state the recorded outcome for this compound: CCN(CCO)CCC(=O)c1ccc([N+](=O)[O-])cc1
inactive

Please state the recorded outcome for this compound: C[n+]1c(-c2ccccc2)c2cc(N)ccc2c2ccccc21
active

Please state the recorded outcome for this compound: COc1ccc(-c2cc(-c3ccc(Cl)cc3)nc(SCCCCCCC(=O)NO)n2)cc1
inactive

Please state the recorded outcome for this compound: O=C(Nc1ccc(Cl)c(C(F)(F)F)c1)Nc1ccc(-c2cccnc2)cc1N1CCC(CO)CC1
inactive

Please state the recorded outcome for this compound: C=CC1=C(C)C2=NC1=CC1=NC(=CC3=C(C)C4=C(O)C(C(=O)O)C(=C5NC(=C2)C(C)C5CCC(=O)O)C4=N3)C(CC)=C1C (configuration not stated)
inactive

====

Test system: MALME-3M melanoma
ASSAY_EXPLANATION: NCI-60 one-dose screen, 48 h
CONDITIONS: 10 µM unless noted
The panel holds about 83,000 compounds, 20% with a hit somewhere; the sample as a whole holds those more often. Activity calls are given as the source filed them. Rule for the calls: active = growth percent below 10; inactive = the rest.
Can you answer with just one of these options? 1.0 for active, 0.0 for inactive

Please state the recorded outcome for this molecule: COc1ccc2nc3c(cc2c1)C(=O)CC(c1ccccc1)C3 (stereo not given)
0.0

Please state the recorded outcome for this molecule: CCc1ccc(C2=C/C(=C/c3ccccc3)C(=O)N2CCc2ccc(S(N)(=O)=O)cc2)cc1
0.0

Please state the recorded outcome for this molecule: CC(C)(C)c1cc(C(=O)Nc2ccc(C(=O)NCCN)cc2)cc(C(C)(C)C)c1
0.0

Please state the recorded outcome for this molecule: Cc1ccc2c(c1)C(C)Cc1c(Cl)ncnc1N2C (stereo not given)
0.0

Please state the recorded outcome for this molecule: CCN(CC)CCCC(C)Nc1c2ccc(C)cc2nc2ccc(OC)cc12 (stereo not given)
0.0

Please state the recorded outcome for this molecule: Cc1ccc(-n2nc3n(/c2=N\C(=O)NS(=O)(=O)c2ccc(C)cc2)CCN3C2=NCCN2)cc1
0.0

Please state the recorded outcome for this molecule: C=C(C)[C@@H]1CC[C@]2(C)[C@H](CC[C@@H]3[C@@H]([C@@](C)(O)CCC=C(C)C)CC[C@]32C)[C@@]1(C)CCC(=O)N1CCN(C)CC1
1.0

Please state the recorded outcome for this molecule: Cc1ccc(S(=O)(=O)Oc2ccc([N+](=O)[O-])cc2[N+](=O)[O-])cc1
0.0

Please state the recorded outcome for this molecule: CCCCOC(=O)c1c(C)[nH]c(/C=C2\N=C(c3ccc[nH]3)C=C2OC)c1C
1.0

Please state the recorded outcome for this molecule: CNc1cc(C(=O)O)nc(NC)n1
0.0

Please state the recorded outcome for this molecule: C#C[C@]1(O)CC[C@H]2[C@@H]3CC=C4c5nc(Nc6ccc(OC)cc6OC)sc5CC[C@]4(C)[C@H]3CC[C@@]21C
1.0

Please state the recorded outcome for this molecule: COc1ccccc1S(=O)Nc1ccccc1 (stereo not given)
0.0

Please state the recorded outcome for this molecule: Cc1cc(NN=C(c2ccc(O)cc2)c2ccc(O)cc2)c([N+](=O)[O-])cc1[N+](=O)[O-]
0.0

Please state the recorded outcome for this molecule: O=C1CC(c2ccccc2)Cc2nc3ccc(Cl)cc3cc21 (stereo not given)
0.0

Please state the recorded outcome for this molecule: CCCSc1nc(N)nc2nc[nH]c12
0.0

Please state the recorded outcome for this molecule: CC[C@@](C)(NC(=O)[C@H](C)NC(=O)CCNC(=O)C(C)(C)NC(=O)[C@H](C)NC(=O)[C@@H]1CCCN1C(=O)[C@@](C)(CC)NC(=O)[C@H](Cc1ccccc1)NC(=O)C1CCCN1C(=O)C(C)(C)NC(=O)C1CCCN1C(=O)C(C)(C)NC(C)=O)C(=O)NCCC(=O)N[C@@H](CC(C)C)C(=O)NC(C)(C)C(=O)NCCC(=O)N[C@@H](CC(C)C)C(=O)NC(C)(C)C(=O)NC(C)(C)C(=O)N[C@@H](CC(C)C)C(=O)NCCC(=O)NCO (stereo not given in full)
1.0

Please state the recorded outcome for this molecule: Nc1nc(Cl)c2ncn(Cc3cc4c(cc3I)OCO4)c2n1
0.0

Please state the recorded outcome for this molecule: O=C(COc1cccc(/C=C2\Oc3ccccc3C2=O)c1)c1ccc([N+](=O)[O-])cc1
0.0

Please state the recorded outcome for this molecule: O=C1Nc2ccccc2/C1=C/C(=O)c1ccc(N2CCOCC2)cc1
0.0

Please state the recorded outcome for this molecule: c1cc2ccc3cc2cc1CNCCN1CCNCc2ccc4ccc(cc4c2)CNCCN(CCNC3)CCNCc2ccc3ccc(cc3c2)CNCC1
1.0

Please state the recorded outcome for this molecule: Fc1ccc(NC(=S)c2ccccc2)cc1
0.0

Please state the recorded outcome for this molecule: CC1(C)CC[C@]23CC[C@]4(C)[C@H](CC[C@@H]5[C@@]6(C)C/C(=C/c7ccncc7)C(=O)C(C)(C)[C@@H]6CC[C@]54C)[C@H]2[C@H]1OC3=O
0.0

Please state the recorded outcome for this molecule: CCn1cc(-c2[nH]c(=S)ncc2-c2ccc(Cl)cc2)c(-c2ccc(Br)cc2)n1
0.0

Please state the recorded outcome for this molecule: Cc1cccc(C[C@H](NC(=O)Nc2ccc(C)cc2F)C(=O)N[C@@H]2C(=O)N3C[C@H](O)C[C@H]3C(=O)N3CCN(C)C[C@H]3C(=O)N[C@@H](C)C(=O)N3C[C@H](C)C[C@H]3C(=O)O[C@H]2C)c1
0.0

Please state the recorded outcome for this molecule: Cc1ccc(NC(=O)N[C@@H](Cc2cc(F)cc(F)c2)C(=O)N[C@@H]2C(=O)N3CCC[C@H]3C(=O)N3CCOC[C@H]3C(=O)N[C@@H](C)C(=O)N3C[C@H](C)C[C@H]3C(=O)O[C@H]2C)cc1
0.0

Please state the recorded outcome for this molecule: Nc1ccc(Cl)c([N+](=O)[O-])c1
0.0

Please state the recorded outcome for this molecule: COc1ccc2c3ccnc(C(F)(F)F)c3n(CCCCN)c2c1
0.0

Please state the recorded outcome for this molecule: CCCCCCCCCCCCCCNC(=O)Nc1ccc(Cl)c(Cl)c1
0.0

Please state the recorded outcome for this molecule: CNC(=O)c1cc(Oc2ccc3nc(NC(=O)c4ccc5ncccc5c4)sc3c2)ccn1
0.0

Please state the recorded outcome for this molecule: CCN(CC)c1ccc(/C=C/C=C2\NC(=O)NC2=O)cc1
0.0

Please state the recorded outcome for this molecule: O=C(NNc1ccc(-c2ccccc2)nn1)c1ccc(F)cc1
0.0

Please state the recorded outcome for this molecule: CCCOc1ccc(-c2nc(-c3ccc(N)cc3)cs2)cc1
0.0

Please state the recorded outcome for this molecule: O=C(OCc1ccc2c(Cl)cc(Cl)c(O)c2n1)N1CCN(C(=O)c2cc3cc(F)ccc3[nH]2)CC1
0.0

Please state the recorded outcome for this molecule: COc1ccc(-c2c(C)nn3c(NCCN4CCOCC4)cc(C)nc23)cc1OC
0.0

Please state the recorded outcome for this molecule: Brc1ccc(-c2nnc3c4[nH]ccc4ncn23)cc1
0.0
